- TARGET_UNDER_TEST: T1, human DKK1 (human, UniProt O94907 32-266)
- T1 sequence: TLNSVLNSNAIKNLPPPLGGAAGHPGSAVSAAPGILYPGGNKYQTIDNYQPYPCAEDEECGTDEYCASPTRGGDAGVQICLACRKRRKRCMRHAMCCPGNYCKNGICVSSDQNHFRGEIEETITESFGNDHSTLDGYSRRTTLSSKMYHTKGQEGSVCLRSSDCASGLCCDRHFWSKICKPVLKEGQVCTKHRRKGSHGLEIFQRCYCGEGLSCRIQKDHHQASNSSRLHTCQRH
- PROCEDURE_DETAILS: cell-based or functional assay

| BINDER | TCF EC50, nM |
| --- | --- |
| 5.40.1 (antibody, V domains shown, Fully human hybridoma IgG, kappa (Vk)) VH: QVLLQESGPGLVKPSETLSLTCTVSGGSISSYYWSWIRQTPGKGLEWIGYVYYSGSTSYNPSLKSRVTISMYTSKTEFSLKLSSVTAADTAVYYCARYNWNNDLFDYWGQGTLVTVSS VL: DIRLTQSPSSLSASVGDRVTITCQASQDISNYLNWYQQEPGKAPKLLIYDASNLETGVPSRFSGSGSGTDFTFTISSLQPEDIATYYCQQYDNFPLTFGGGTKVEIK | 3.75 |
| 2.40.1 (antibody, V domains shown, Fully human hybridoma IgG, kappa (Vk)) VH: QVQLVESGGGVVQPGRSLRLSCAASGFTFSSYGMHWVRQAPGKGLGWVAVISYDGSDKYYADSVKGRFTISRDNSKNTLYLQMNSLRAEDTAVYYCARDLVDTAMPWGQGTTVTVSS VL: DIVMTQSPLSLSVTPGQPASISCKSSQSLLHSDGKTYLYWYLQKPGQPPQLLIYEVSNRFSGVPDRFSGSGSGTDFTLKISRVEAEDVGVYYCMQSIQVPWTFGQGTKVEIK | 1.28 |
| 5.76.1 (antibody, V domains shown, Fully human hybridoma IgG, lambda (Vl)) VH: QLQLQESGPGLVKPSETLSLTCTVSGGSISSSNYYWGWIRQPPGKGLEWIGTIYYSGSTYYTPSLKSRVTISVDTSKNQFSLKLSSVTAADTAVYYCARERAIAVAAIVFFDYWGQGTLVTVSS VL: SYVLTQPPSVSVAPGQTARITCGGNNIGSESVHWYQQKPGQAPVLVVYDDSDRPSGIPERFSGSNSGNTATLTISRVEAGDEADYYCQVWDSSNDHVVFGGGTKLTVL | 2.55 |
| 5.77.1 (antibody, V domains shown, Fully human hybridoma IgG, lambda (Vl)) VH: QVQLVQSGAEVKKPGASVKVSCKASGYTFTSYDINWVRQATGQGLEWMGWMNLNSDNTGYAQKFQGRVTMTRNTSISTAYMELSSLRSEDTAVYYCASIAARRDYNYYGMDVWGQGTKVTVSS VL: QSPSVSVAPGQTARITCGGNNIGSKSVHWYQQKPGQAPVLVVYDDSDRPSGIPERFSGSNSGNTATLTISRVEAGDEADYYCQVWDSSSDHWVFGGGTKLTVL | 2.14 |
| 2.4.1 (antibody, V domains shown, Fully human hybridoma IgG, kappa (Vk)) VH: QVQLMQSGAEVKKPGASVKVSCKASGYTFTSYGISWVRQAPGQGLEWMGWISADNGHTNYAQKLQGRVTMTTDTSTSTAYMELRSLRSDDTAVYYCARDGELLNYYYYYGMDVWGQGTTVTVSS VL: DIQMTQSPSSLSASVGDRVTITCRASQGIRDDLGWFQQKPGKAPKRLIYAASSLQSGVPSRFSGSGSGTEFTLTISSLQPEDFATYYCLQHNSYPCSFGQGTKLEFK | 38.6 |
